// reported conversion of 0708-30 by PAD2, 50 µM inhibitor for each item listed
# targetDesc: recombinant human PAD2 (human, UniProt Q9Y2J8 1-665)
# Sequence (Q9Y2J8 whole entry): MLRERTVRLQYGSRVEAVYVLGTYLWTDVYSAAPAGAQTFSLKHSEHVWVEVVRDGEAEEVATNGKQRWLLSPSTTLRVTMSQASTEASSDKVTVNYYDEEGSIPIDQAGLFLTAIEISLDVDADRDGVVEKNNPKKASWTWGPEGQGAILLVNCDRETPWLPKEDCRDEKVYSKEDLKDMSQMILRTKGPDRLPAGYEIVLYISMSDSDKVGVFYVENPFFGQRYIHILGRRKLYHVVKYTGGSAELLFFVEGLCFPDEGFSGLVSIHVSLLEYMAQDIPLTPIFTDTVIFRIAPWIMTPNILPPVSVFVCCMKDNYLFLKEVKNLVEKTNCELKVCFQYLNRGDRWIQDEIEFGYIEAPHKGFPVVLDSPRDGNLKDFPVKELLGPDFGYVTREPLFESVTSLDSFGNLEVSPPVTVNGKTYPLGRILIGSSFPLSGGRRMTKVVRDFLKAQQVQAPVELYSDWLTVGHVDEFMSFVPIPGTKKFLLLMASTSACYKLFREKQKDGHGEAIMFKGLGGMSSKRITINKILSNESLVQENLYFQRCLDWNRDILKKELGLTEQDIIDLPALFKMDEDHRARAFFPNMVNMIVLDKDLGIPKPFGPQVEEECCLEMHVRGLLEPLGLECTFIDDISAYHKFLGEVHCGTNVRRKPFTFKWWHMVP
# assayMethodText: cell-based or functional assay
Numbered stars: 1 amine (or outer) side, 2 acyl side, 3 side chain; on linkers, the order of the positions; unused ones are H or OH. Square brackets hold non-standard residues; d marks the D form. Orn(CA) = ornithine chloroamidine, O(CA), N=C(CCl)NCCC[C@H](N[*:1])C(=O)[*:2]; Orn(fluoroacetimidoyl) = N=C(CF)NCCC[C@H](N)C(=O)O
quantityName: conversion of 0708-30 by PAD2, 50 µM inhibitor (%)

{"columns": ["binder", "reported"],
 "data": [
  ["Ac-DSKKHD[Orn(CA)]DFLYSD-NH2 (SMILES CC(=O)N[C@@H](CC(=O)O)C(=O)N[C@@H](CO)C(=O)N[C@@H](CCCCN)C(=O)N[C@@H](CCCCN)C(=O)N[C@@H](Cc1c[nH]cn1)C(=O)N[C@@H](CC(=O)O)C(=O)N[C@@H](CCCNC(=N)CCl)C(=O)N[C@@H](CC(=O)O)C(=O)N[C@@H](Cc1ccccc1)C(=O)N[C@@H](CC(C)C)C(=O)N[C@@H](Cc1ccc(O)cc1)C(=O)N[C@@H](CO)C(=O)N[C@@H](CC(=O)O)C(N)=O) [0741-06CA]", 45],
  ["Ac-FFDSHKFD[Orn(fluoroacetimidoyl)]DFIYSD-NH2 (SMILES CC[C@H](C)[C@H](NC(=O)[C@H](Cc1ccccc1)NC(=O)[C@H](CC(=O)O)NC(=O)[C@H](CCCNC(=N)CF)NC(=O)[C@H](CC(=O)O)NC(=O)[C@H](Cc1ccccc1)NC(=O)[C@H](CCCCN)NC(=O)[C@H](Cc1c[nH]cn1)NC(=O)[C@H](CO)NC(=O)[C@H](CC(=O)O)NC(=O)[C@H](Cc1ccccc1)NC(=O)[C@H](Cc1ccccc1)NC(C)=O)C(=O)N[C@@H](Cc1ccc(O)cc1)C(=O)N[C@@H](CO)C(=O)N[C@@H](CC(=O)O)C(N)=O) [0741-03FA]", 13],
  ["Ac-FFDSHKLH[Orn(CA)]EWMWSD-NH2 (SMILES CSCC[C@H](NC(=O)[C@H](Cc1c[nH]c2ccccc12)NC(=O)[C@H](CCC(=O)O)NC(=O)[C@H](CCCNC(=N)CCl)NC(=O)[C@H](Cc1c[nH]cn1)NC(=O)[C@H](CC(C)C)NC(=O)[C@H](CCCCN)NC(=O)[C@H](Cc1c[nH]cn1)NC(=O)[C@H](CO)NC(=O)[C@H](CC(=O)O)NC(=O)[C@H](Cc1ccccc1)NC(=O)[C@H](Cc1ccccc1)NC(C)=O)C(=O)N[C@@H](Cc1c[nH]c2ccccc12)C(=O)N[C@@H](CO)C(=O)N[C@@H](CC(=O)O)C(N)=O) [0741-04CA]", 47]
]}

The reported numbers originate from patent US20110142868A1.
